Data credit: ChEMBL document CHEMBL5223091

Test: Passive permeability across apical to basolateral side in dog MDCK-MDR1 cells at 5 uM
Type: ADME, cell-based, Canis lupus familiaris
Details: read-out: permeability
property-label: Papp A→B at 5 µM

• CC(C)(C)NS(=O)(=O)c1cccc(NC(=O)c2ncc(NS(C)(=O)=O)nc2N2CCC3(CC2)CC3)n1 = < 0.3 ×10⁻⁶ cm/s

* * *

Assay: Unbound fraction in CD-1 mouse plasma xenografted with human OVCAR-3 cells at 100 mg/kg, po by LC-MS/MS analysis
Type: ADME, organism-based
property-label: fraction unbound

• CC(C)(C)NS(=O)(=O)c1cccc(NC(=O)c2ncc(NS(C)(=O)=O)nc2N2CCC3(CC2)CC3)n1 = 0.022

* * *

Experiment: Metabolic stability in human liver microsomes assessed as intrinsic clearance at 0.5 uM incubated upto 40 mins by LCMS analysis
Format: ADME, Microsome
Details: read-out: CLH
Recorded microsomal CLint at 0.5 µM by entry
property-label: microsomal CLint at 0.5 µM

• O=C(Nc1cccc(S(=O)(=O)C2CCCC2)n1)c1ccc(NCCO)cc1N1CCC2(CC1)CC2 = > 399 µL/min/mg
• CC(C)(CO)Nc1ccc(C(=O)Nc2cccc(S(=O)(=O)NC3CCCC3)n2)c(N2CCC3(CC2)CC3)c1 = > 399 µL/min/mg
• CC(C)(C)NS(=O)(=O)c1cccc(NC(=O)c2ccc(NC(C)(C)CO)nc2N2CCC3(CC2)CC3)n1 = > 399 µL/min/mg
• CC(C)(C)NS(=O)(=O)c1cccc(NC(=O)c2ccc(NC3(CO)CC3)cc2N2CCC3(CC2)CC3)n1 = 83 µL/min/mg
• CC(C)(C)NS(=O)(=O)c1cccc(NC(=O)c2ccc(NS(=O)(=O)C3(C)CC3)cc2N2CCC3(CC2)CC3)c1 = 90 µL/min/mg
• O=C(Nc1cccc(S(=O)(=O)C2CCCC2)c1)c1cccnc1N1CCC(F)(F)CC1 = > 399 µL/min/mg
• CC(C)(O)CNc1ccc(C(=O)Nc2cccc(S(=O)(=O)C3CCCC3)n2)c(N2CCC3(CC2)CC3)c1 = > 399 µL/min/mg
• CC1(C)CCN(c2ncccc2C(=O)Nc2cccc(S(=O)(=O)C3CCCC3)c2)CC1 = > 399 µL/min/mg

* * *

half-life values, listed per item
Experiment: Half life in CD-1 mouse at 1 mg/kg, iv and 10 mg/kg, po
Type: ADME, organism-based
Conditions: in vivo
property-label: half-life (h)

* CC(C)(C)NS(=O)(=O)c1cccc(NC(=O)c2ccc(NC3(CO)CC3)cc2N2CCC3(CC2)CC3)n1 | 1.5
* CC(C)(C)NS(=O)(=O)c1cccc(NC(=O)c2ncc(NS(C)(=O)=O)nc2N2CCC3(CC2)CC3)n1 | 1.7
* CC(C)(C)NS(=O)(=O)c1cccc(NC(=O)c2ncc(NC(C)(C)CO)nc2N2CCC3(CC2)CC3)c1 | 3.6

* * *

Assay: Metabolic stability in mouse liver microsomes assessed as intrinsic clearance at 0.5 uM incubated upto 40 mins by LCMS analysis
Format: ADME, Microsome
Details: read-out: CLH
The following molecules are listed with their measured microsomal CLint at 0.5 µM values.
property-label: microsomal CLint at 0.5 µM

• CC(C)(O)CNc1ccc(C(=O)Nc2cccc(S(=O)(=O)C3CCCC3)n2)c(N2CCC3(CC2)CC3)c1 = > 399 µL/min/mg
• O=C(Nc1cccc(S(=O)(=O)C2CCCC2)c1)c1cccnc1N1CCC2(CC1)CC2 = > 399 µL/min/mg
• CC(C)(C)NS(=O)(=O)c1cccc(NC(=O)c2ccc(NS(C)(=O)=O)cc2N2CCC3(CC2)CC3)c1 = 81 µL/min/mg
• CC(C)(CO)S(=O)(=O)c1cccc(NC(=O)c2cccnc2N2CCC3(CC2)CC3)c1 = > 399 µL/min/mg
• CC(C)(CO)Nc1ccc(C(=O)Nc2cccc(S(=O)(=O)NC3CCCC3)n2)c(N2CCC3(CC2)CC3)c1 = > 399 µL/min/mg
• O=C(Nc1cccc(S(=O)(=O)C2COC2)c1)c1cccnc1N1CCC2(CC1)CC2 = 385 µL/min/mg
• O=C(Nc1cccc(S(=O)(=O)N2CCCC2)c1)c1cccnc1N1CCC2(CC1)CC2 = > 399 µL/min/mg
• CC(C)(C)NS(=O)(=O)c1cccc(NC(=O)c2cccnc2N2CCC3(CC2)CC3)c1 = > 399 µL/min/mg
• O=C(Nc1cccc(S(=O)(=O)C2CCCC2)c1)c1cccnc1N1CCCCC1 = > 399 µL/min/mg
• CC(C)(C)NS(=O)(=O)c1cccc(NC(=O)c2ncc(NC(C)(C)CO)nc2N2CCC3(CC2)CC3)c1 = 76 µL/min/mg
• CC1(C)CCN(c2ncccc2C(=O)Nc2cccc(S(=O)(=O)C3CCCC3)c2)CC1 = > 399 µL/min/mg
• CC(C)(C)NS(=O)(=O)c1cccc(NC(=O)c2ncc(NS(C)(=O)=O)nc2N2CCC3(CC2)CC3)n1 = 64 µL/min/mg
• O=C(Nc1cccc(S(=O)(=O)NC2CC2)c1)c1cccnc1N1CCC2(CC1)CC2 = > 399 µL/min/mg
• CC(C)S(=O)(=O)c1cccc(NC(=O)c2cccnc2N2CCC3(CC2)CC3)c1 = > 399 µL/min/mg
• O=C(Nc1cccc(S(=O)(=O)C2CCCC2)c1)c1cccnc1N1CCC(F)(F)CC1 = > 399 µL/min/mg
• CC(C)(C)NS(=O)(=O)c1cccc(NC(=O)c2ccc(NC3(CO)CC3)cc2N2CCC3(CC2)CC3)n1 = 58 µL/min/mg
• O=C(Nc1cccc(S(=O)(=O)C2CCCC2)n1)c1ccc(NCCO)cc1N1CCC2(CC1)CC2 = > 399 µL/min/mg
• CC(C)(C)NS(=O)(=O)c1cccc(NC(=O)c2ccc(NS(=O)(=O)C3(C)CC3)cc2N2CCC3(CC2)CC3)c1 = 90 µL/min/mg
• O=C(Nc1cccc(S(=O)(=O)N2CCCCC2)c1)c1cn[nH]c1-c1ccc(Cl)cc1 = > 399 µL/min/mg
• CC(C)(C)NS(=O)(=O)c1cccc(NC(=O)c2ccc(NC(C)(C)CO)cc2N2CCC3(CC2)CC3)n1 = > 399 µL/min/mg
• CC(C)(C)NS(=O)(=O)c1cccc(NC(=O)c2ccc(NC(C)(C)CO)nc2N2CCC3(CC2)CC3)n1 = > 399 µL/min/mg
• CN(CCO)c1ccc(C(=O)Nc2cccc(S(=O)(=O)C3CCCC3)n2)c(N2CCC3(CC2)CC3)c1 = > 399 µL/min/mg
• COc1ccc(C(=O)Nc2cccc(S(=O)(=O)C3CCCC3)n2)c(N2CCC3(CC2)CC3)c1 = > 399 µL/min/mg

* * *

Assay: Kinetic solubility of compound in FaSSIF
Format: ADME
Conditions: read-out: Kinetic_solubility
property-label: solubility kinetic (µM)

- CC(C)(C)NS(=O)(=O)c1cccc(NC(=O)c2ncc(NS(C)(=O)=O)nc2N2CCC3(CC2)CC3)n1: 209

* * *

Test: Metabolic stability in human liver microsomes assessed as intrinsic clearance at 0.5 uM incubated upto 40 mins by LCMS analysis
Assay type: ADME, Microsome
Conditions: read-out: CLH
The reader will find reported microsomal CLint at 0.5 µM values listed item by item below.
property-label: microsomal CLint at 0.5 µM (µL/min/mg)

• CC(C)(CO)S(=O)(=O)c1cccc(NC(=O)c2cccnc2N2CCC3(CC2)CC3)c1 = 154
• CC(C)(C)NS(=O)(=O)c1cccc(NC(=O)c2ccc(NC(C)(C)CO)cc2N2CCC3(CC2)CC3)n1 = 189
• O=C(Nc1cccc(S(=O)(=O)C2COC2)c1)c1cccnc1N1CCC2(CC1)CC2 = 183
• CC(C)S(=O)(=O)c1cccc(NC(=O)c2cccnc2N2CCC3(CC2)CC3)c1 = 375

* * *

Test: Plasma concentration in CD-1 mouse xenografted with human OVCAR-3 cells at 100 mg/kg, ip measured upto 24 hrs by LC-MS/MS analysis
Format: ADME, organism-based
The entries below come with measured concentration at 24 h values attached.
property-label: concentration at 24 h

- CC(C)(C)NS(=O)(=O)c1cccc(NC(=O)c2ccc(NS(C)(=O)=O)cc2N2CCC3(CC2)CC3)c1: 2900 nM
- CC(C)(C)NS(=O)(=O)c1cccc(NC(=O)c2ccc(NS(=O)(=O)C3(C)CC3)cc2N2CCC3(CC2)CC3)c1: 800 nM

* * *

Target: Kinesin-like protein KIF18A (Mus musculus, UniProt Q91WD7)
Sequence (Q91WD7 whole entry): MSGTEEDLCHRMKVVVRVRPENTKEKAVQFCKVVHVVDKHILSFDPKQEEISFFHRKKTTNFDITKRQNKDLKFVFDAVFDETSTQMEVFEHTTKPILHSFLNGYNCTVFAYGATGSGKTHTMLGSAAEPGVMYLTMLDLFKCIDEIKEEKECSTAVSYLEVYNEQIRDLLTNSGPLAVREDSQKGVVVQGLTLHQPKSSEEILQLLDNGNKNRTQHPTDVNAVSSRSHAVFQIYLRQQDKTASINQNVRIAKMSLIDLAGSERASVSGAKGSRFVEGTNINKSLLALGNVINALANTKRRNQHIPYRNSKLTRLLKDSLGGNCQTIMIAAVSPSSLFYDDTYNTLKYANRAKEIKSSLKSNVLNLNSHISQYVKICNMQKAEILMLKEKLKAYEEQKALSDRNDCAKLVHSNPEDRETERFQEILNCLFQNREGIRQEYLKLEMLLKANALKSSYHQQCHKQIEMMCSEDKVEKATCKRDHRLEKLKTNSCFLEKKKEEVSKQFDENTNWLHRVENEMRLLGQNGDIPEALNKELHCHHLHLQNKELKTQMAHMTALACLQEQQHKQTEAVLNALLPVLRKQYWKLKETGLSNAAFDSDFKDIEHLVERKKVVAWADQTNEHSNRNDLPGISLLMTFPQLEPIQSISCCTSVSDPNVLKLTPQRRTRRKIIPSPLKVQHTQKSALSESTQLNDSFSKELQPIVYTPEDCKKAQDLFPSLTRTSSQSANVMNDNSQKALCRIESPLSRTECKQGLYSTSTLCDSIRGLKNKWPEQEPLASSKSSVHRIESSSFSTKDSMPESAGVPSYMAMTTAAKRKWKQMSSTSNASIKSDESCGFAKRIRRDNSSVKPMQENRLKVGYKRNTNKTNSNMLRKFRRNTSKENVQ
Experiment: Inhibition of recombinant His-tagged mouse KIF18A expressed in Trichoplusia ni insect cells assessed as inhibition of microtubule-stimulated ATPase activity preincubated for 30 mins followed by ATP addition and further incubated for 15 mins by ADP-Glo reagent based assay
property-label: IC50 (nM)

- CC(C)(C)NS(=O)(=O)c1cccc(NC(=O)c2ncc(NS(C)(=O)=O)nc2N2CCC3(CC2)CC3)n1: 77

* * *

This section presents compounds with their documented pIC50 values.
Biological target: Kinesin-like protein KIF11 (Homo sapiens, UniProt P52732)
Sequence (P52732 whole entry): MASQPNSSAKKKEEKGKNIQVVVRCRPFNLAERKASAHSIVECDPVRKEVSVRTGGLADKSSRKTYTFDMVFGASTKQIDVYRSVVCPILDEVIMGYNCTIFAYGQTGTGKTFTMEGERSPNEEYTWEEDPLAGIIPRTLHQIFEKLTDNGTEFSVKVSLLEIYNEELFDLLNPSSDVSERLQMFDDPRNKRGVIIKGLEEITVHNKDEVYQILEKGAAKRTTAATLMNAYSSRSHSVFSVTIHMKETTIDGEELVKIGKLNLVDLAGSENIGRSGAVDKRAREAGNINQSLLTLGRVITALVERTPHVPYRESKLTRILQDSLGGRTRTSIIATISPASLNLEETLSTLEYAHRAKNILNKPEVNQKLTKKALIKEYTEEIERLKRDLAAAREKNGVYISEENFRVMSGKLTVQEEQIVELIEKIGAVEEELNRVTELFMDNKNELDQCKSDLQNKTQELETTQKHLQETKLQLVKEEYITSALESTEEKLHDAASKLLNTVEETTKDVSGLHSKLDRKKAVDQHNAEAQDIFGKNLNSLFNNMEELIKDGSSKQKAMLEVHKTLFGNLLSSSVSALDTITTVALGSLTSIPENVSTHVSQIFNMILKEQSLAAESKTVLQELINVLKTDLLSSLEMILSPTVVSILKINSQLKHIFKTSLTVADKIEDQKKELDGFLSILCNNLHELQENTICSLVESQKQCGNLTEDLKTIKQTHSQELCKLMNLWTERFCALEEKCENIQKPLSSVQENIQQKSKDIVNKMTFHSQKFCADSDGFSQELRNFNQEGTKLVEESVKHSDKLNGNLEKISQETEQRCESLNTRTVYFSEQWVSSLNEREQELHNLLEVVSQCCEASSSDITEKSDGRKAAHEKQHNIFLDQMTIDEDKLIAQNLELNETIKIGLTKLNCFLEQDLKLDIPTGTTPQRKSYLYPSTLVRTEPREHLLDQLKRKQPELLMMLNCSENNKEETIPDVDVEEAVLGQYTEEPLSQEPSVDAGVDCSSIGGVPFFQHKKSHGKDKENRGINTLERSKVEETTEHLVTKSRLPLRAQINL
Experiment: Inhibition of recombinant GST-tagged human Eg5 assessed as inhibition of microtubule-stimulated ATPase activity preincubated for 30 mins followed by ATP addition and further incubated for 15 mins by ADP-Glo reagent based assay
pIC50: −log10 of the molar value.
property-label: pIC50

* O=C(Nc1cccc(S(=O)(=O)C2CCCC2)c1)c1cccnc1N1CCCCC1 | < 4.00
* CC(C)(C)NS(=O)(=O)c1cccc(NC(=O)c2ncc(NS(C)(=O)=O)nc2N2CCC3(CC2)CC3)n1 | < 4.00
* O=C(Nc1cccc(S(=O)(=O)N2CCCCC2)c1)c1cn[nH]c1-c1ccc(Cl)cc1 | < 4.00
